- Experiment Notes: Stability and biodistribution of prodrugs in vivo (HPLC of plasma and tissues)
- Parameters: species or system mice (CD-1 nude; BALB/C where indicated)
- Details: CECUM, 30 min, 50 mg/kg i.p. or i.v., CD-1 nude mice
Field: class. Source value: concentration of prodrug in cecum. Ranges: Low = under 5 nmol/g, Mid = from 5 nmol/g up to 7 nmol/g, High = 7 nmol/g and over

Compound | Classification
Cc1nc2ccc3ccc(CNc4ccc(C(=O)N[C@@H](CCC(=O)O)C(=O)N[C@@H](Cc5ccccc5C(=O)O)C(=O)O)c(F)c4)cc3c2c(=O)[nH]1 [Prodrug 4] | Mid
CN(Cc1cnc2nc(N)nc(N)c2n1)c1ccc(C(=O)N[C@@H](CCC(=O)O)C(=O)N[C@@H](Cc2ccccc2)C(=O)O)cc1 [Prodrug 10, reference compound] | Low
CN(Cc1cnc2nc(N)nc(N)c2n1)c1ccc(C(=O)N[C@@H](CCC(=O)O)C(=O)N[C@@H](Cc2cccc(C(C)(C)C)c2)C(=O)O)cc1 [Prodrug 12] | High

We next turn to a different compound, shown below.
Q: Any idea which band Cc1nc2ccc3ccc(CNc4ccc5c(c4)CN([C@@H](CCC(=O)O)C(=O)N[C@@H](Cc4ccccc4)C(=O)O)C5=O)cc3c2c(=O)[nH]1 [Prodrug 2] is in?
Ans: Low

Values were extracted from patent US6319702A.
